- Assay System: T1, human CD3 E&D complex protein (Sino Biological Inc., CT026H0323H) (human, UniProt P07766 23-126; P04234 22-105)
- T1 construct: bought heterodimer; also called human CD3 protein (CT026H0323H)
- T1 sequence (P07766 23-126, chain 1 of 2): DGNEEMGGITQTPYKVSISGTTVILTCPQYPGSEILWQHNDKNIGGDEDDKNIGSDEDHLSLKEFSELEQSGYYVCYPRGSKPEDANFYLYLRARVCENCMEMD
- T1 sequence (P04234 22-105, chain 2 of 2): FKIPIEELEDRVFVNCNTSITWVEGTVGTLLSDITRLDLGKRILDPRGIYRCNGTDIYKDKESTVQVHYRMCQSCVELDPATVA
- Test Protocol: BLI, antibody on sensor
Property Label: kon

[[record]]
binder = "hzsp34.102 (antibody, human IgG1, lambda, L234A L235A, V domains shown, CDR mutant of hzsp34.24; IgG1 L234A L235A, lambda) VH: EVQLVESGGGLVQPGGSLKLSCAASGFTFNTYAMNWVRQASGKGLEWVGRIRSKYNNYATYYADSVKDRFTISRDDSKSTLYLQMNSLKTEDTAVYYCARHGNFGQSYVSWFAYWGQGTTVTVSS VL: QAVVTQEPSLTVSPGGTVTLTCGSSTGAVTTSNYANWVQQKPGQAPRGLIGGTNKRAPGVPARFSGSLLGDKAALTLLGAQPEDEAEYYCALWYSNLWVFGQGTKLTVLG"
value = "250000 M⁻¹ s⁻¹"

[[record]]
binder = "hzsp34.94 (antibody, human IgG1, lambda, L234A L235A, V domains shown, CDR mutant of hzsp34.24; IgG1 L234A L235A, lambda) VH: EVQLVESGGGLVQPGGSLKLSCAASGFTFNTYAMNWVRQASGKGLEWVGRIRSKYNNYATYYADSVKDRFTISRDDSKSTLYLQMNSLKTEDTAVYYCARHGNFGQSYASWFAYWGQGTTVTVSS VL: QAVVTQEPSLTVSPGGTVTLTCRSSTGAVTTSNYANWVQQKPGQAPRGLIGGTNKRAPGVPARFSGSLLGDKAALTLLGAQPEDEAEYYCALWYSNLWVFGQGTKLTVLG"
value = "205000 M⁻¹ s⁻¹"

[[record]]
binder = "hzsp34.78 (antibody, human IgG1, lambda, L234A L235A, V domains shown, CDR mutant of hzsp34.24; IgG1 L234A L235A, lambda) VH: EVQLVESGGGLVQPGGSLKLSCAASGFTFGTYAMNWVRQASGKGLEWVGRIRSKYNNYATYYADSVKDRFTISRDDSKSTLYLQMNSLKTEDTAVYYCARHGNFGQSYVSWFAYWGQGTTVTVSS VL: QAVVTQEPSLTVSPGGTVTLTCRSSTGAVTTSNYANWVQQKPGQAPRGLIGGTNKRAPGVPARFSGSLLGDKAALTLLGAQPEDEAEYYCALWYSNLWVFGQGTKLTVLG"
value = "223000 M⁻¹ s⁻¹"

